# Tested on: Staphylococcus aureus ATCC29213
# Procedure Text: Bacterial growth minimal inhibitory concentration (broth microdilution, CLSI M7-A7)
# Format: cell-based
# Condition Info: Staphylococcus aureus, ATCC29213, cation-adjusted Mueller-Hinton Broth, methicillin-sensitive and quinolone-sensitive strain, read-out: MIC for S. aureus ATCC29213
Measured Attribute: MIC (µg/mL)
State the answer as a number, implicitly in µg/mL.

# count of solved cases: 3
1. N#Cc1cncc(-c2cccc(CNCC[C@@H]3CN(c4ccc5c(c4)NC(=O)CS5)C(=O)O3)c2)c1 0.063
2. CCOC(=O)COc1cccc(-c2cccc(CNCC[C@H]3CN(c4ccc5c(n4)NC(=O)CO5)C(=O)O3)c2)c1 1
3. COc1cc(-c2cccc(CNCC[C@@H]3CN(c4ccc5c(c4)NC(=O)CS5)C(=O)O3)c2)ccc1O 0.5

// moving on: another record for MIC
INPUT: Specify MIC for COc1ccc(C#N)c(-c2cccc(CNCCc3cn(-c4ccc5c(n4)NC(=O)CO5)c(=O)o3)c2)c1 and stop.
OUTPUT: 0.063
